target: 4-hydroxyphenylpyruvate dioxygenase (Homo sapiens); assay: Inhibition of purified His6-tagged recombinant human HPPD assessed as inhibition of maleylacetoacetate formation after 30 mins by UV/visible spectrophotometry
Sequence (P32754 whole entry): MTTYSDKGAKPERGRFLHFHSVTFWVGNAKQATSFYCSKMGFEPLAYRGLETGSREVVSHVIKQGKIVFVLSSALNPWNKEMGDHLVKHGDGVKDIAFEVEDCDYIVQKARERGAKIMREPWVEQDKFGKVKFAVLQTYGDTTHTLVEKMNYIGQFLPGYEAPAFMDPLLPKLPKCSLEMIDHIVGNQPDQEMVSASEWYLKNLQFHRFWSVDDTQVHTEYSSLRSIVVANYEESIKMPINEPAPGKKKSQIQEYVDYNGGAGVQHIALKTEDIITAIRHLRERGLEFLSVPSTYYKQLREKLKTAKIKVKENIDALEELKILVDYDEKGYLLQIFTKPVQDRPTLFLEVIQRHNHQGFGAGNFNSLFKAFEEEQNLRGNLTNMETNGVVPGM
The entries below come with measured Ki values attached.
measured-quantity: Ki (nM)

| smiles-input | value-reported |
| --- | --- |
| Cc1nc2ccc(C(=O)c3cnn(C)c3O)cc2c(=O)n1-c1ccccc1Br | 24 |
| Cc1nc2ccc(C(=O)c3cnn(C)c3O)cc2c(=O)n1-c1ccc(Cl)c(Cl)c1 | 25 |
| Cc1cc(Cl)ccc1-n1c(C)nc2ccc(C(=O)c3cnn(C)c3O)cc2c1=O | 32 |
| Cc1cccc(-n2c(C)nc3ccc(C(=O)c4cnn(C)c4O)cc3c2=O)c1 | 13 |
| Cc1nc2ccc(C(=O)c3cnn(C)c3O)cc2c(=O)n1-c1ccc(F)cc1 | 34 |
| Cc1nc2ccc(C(=O)c3cnn(C)c3O)cc2c(=O)n1-c1ccccc1 | 19 |
| Cc1ccc(-n2c(C)nc3ccc(C(=O)c4cnn(C)c4O)cc3c2=O)c(C)c1 | 59 |
| Cc1ccc(-n2c(C)nc3ccc(C(=O)c4c(C)nn(C)c4O)cc3c2=O)c(F)c1 | 81 |
| COc1cccc(-n2c(C)nc3ccc(C(=O)c4cnn(C)c4O)cc3c2=O)c1 | 34 |
| Cc1cc(Cl)ccc1-n1c(C)nc2ccc(C(=O)c3c(C)nn(C)c3O)cc2c1=O | 177 |
